Values were extracted from ChEMBL document CHEMBL1212783.

assay notes: Cytotoxicity against human HepG2 cells
Assay type: cell-based
applied conditions: read-out: CD50 (the source's name)
assay readout: CC50 (µM)

Nc1ccn([C@@H]2C=C[C@H](CO)O2)c(=O)n1 : 20
